Target: human GLP-1 receptor (human, UniProt P43220 24-463)
Test: cell-based or functional assay
Positions of bridges follow the written chain, without caps; N, C: chain ends. Non-standard residues stand in square brackets, D forms with d. No end group written: not given here. *: point of attachment. Acetyl(2-(4-imidazolyl)) = O=C(Cc1c[nH]cn1)*; Aib = CC(C)(N)C(=O)O
This section presents binders with their documented In vitro activity (%) compared with native peptide: vs GLP-1 values.
property-measured: In vitro activity (%) compared with native peptide: vs GLP-1

binder="H[Aib]QGTFTSDYSKYLDEKAQKEFVQWLLDTC (bridge 16-20; not fully specified) [triple agonist of SEQ ID NO: 30]" relation== reported_result=142
binder="{Acetyl(2-(4-imidazolyl))}-[Aib]QGTFTSDYSIAMDEIACKDFVNWLLNTK (bridge 15-19; not fully specified) [triple agonist of SEQ ID NO: 61]" relation== reported_result=59.8
binder="H[Aib]QGTFTSDVSSYLLGQAAKQFIAWLVKGGGPSSGAPPPSC (not fully specified) [triple agonist of SEQ ID NO: 3]" relation== reported_result=1.8
binder="{Acetyl(2-(4-imidazolyl))}-GEGTFISDYSIQLDEIAVQDFVEWLLAQKPSSGAPPPSHG (not fully specified; also: ring from underlined residues, positions not shown) [triple agonist of SEQ ID NO: 13]" relation=< reported_result=0.1

src = patent US20230372448A1
